Collected literature values of pKi measured for Matrix metalloproteinase-9 (Homo sapiens, UniProt P14780).
pKi: −log10 of the molar value.
test_readout: pKi

Known pKi results, listed for orientation:
compound | test_readout | numeric_readout
CNC(=O)[C@H](Cc1ccc(OCc2ccccc2)cc1)NC(=O)C(=O)NO | pKi | 5.70
CNC(=O)[C@@H](CC(C)C)NC(=O)[C@@H](CC(=O)NO)CC(C)C | pKi | 8.60
COc1ccc(S(=O)(=O)N[C@@H](Cc2ccccc2)C(=O)N[C@@H](C)C(=O)Nc2n[nH]c(=S)s2)cc1 | pKi | 4.68
CC(C)C[C@H](CC(=O)NO)C(=O)N[C@H](Cc1ccc2ccccc2c1)C(=O)NCc1ccccc1 | pKi | 8.28
CC(C)C[C@H](CC(=O)NO)C(=O)N[C@@H](Cc1c[nH]c2ccccc12)C(=O)NCCCN1CCOCC1 | pKi | 8.72
CC(C)C[C@H](CC(=O)NO)C(=O)N[C@@H](Cc1c[nH]c2ccccc12)C(=O)NCc1ccccn1 | pKi | 9.17
O=S(=O)(N[C@@H]1CCC[C@H]1S)c1ccc(Oc2ccccc2)cc1 | pKi | 7.38
C[C@H](NC(=O)C(=O)NO)C(=O)N[C@@H](C)c1ccccc1 | pKi | 5.05
O=S(=O)(N[C@H]1CCC[C@H]1S)c1ccc(Oc2ccccc2)cc1 | pKi | 6.55
CNC(=O)[C@@H]1CCCNCCCCO[C@H](C(=O)NO)[C@@H](CCCc2ccccc2)C(=O)N1 | pKi | 7.68

[a] CNC(=O)[C@@H](NC(=O)[C@H](CC(C)C)[C@H](C)N(O)C=O)C(C)(C)C
[b] C[C@H](NC(=O)[C@H](Cc1ccccc1)NC(=O)C(=O)NO)c1ccccc1
Parameter metric = pKi. Return the lower-valued option from a and b . Returns: label corresponding to the selected item.
b
(b: 6.05, a: 7.68)

###

Collected literature values of Ki measured for Matrix metalloproteinase-9 (Homo sapiens).
test_readout: Ki (nM)

compound | Ki [nM]
O=C1NCCCC[C@@H](C(=O)NCC(=O)N2CCNCC2)NC(=O)[C@H](Cc2ccc(-c3ccccc3C(F)(F)F)cc2)[C@@H](C(=O)NO)CCCO1 | 1790

[a] CC(C)C[C@H](CC(=O)NO)C(=O)N(C)[C@@H](Cc1c[nH]c2ccccc12)C(=O)NCCCN1CCOCC1
[b] CCCC[C@H](CC(=O)NO)C(=O)N[C@@H](Cc1c[nH]c2ccccc12)C(=O)NC
[c] CS(=O)(=O)N1CCC([C@H](C(=O)NO)[C@@H](Cc2cccc(O)c2)C(=O)N[C@H]2c3ccccc3C[C@H]2O)CC1
List items by Ki in falling order. The reply should contain the labels ordered as requested.
c, a, b
(c: 2100 nM, a: 69 nM, b: 0.54 nM)

###

pKi: −log10 of the molar value.
Collected literature values of pKi measured for Matrix metalloproteinase-9 (Homo sapiens).
test_readout: pKi

Known pKi results, listed for orientation:
compound | pKi
NC(=O)C(Cc1c[nH]c2ccccc12)NC(=O)C(Cc1ccc2ccccc2c1)CP(=O)(O)C(Cc1ccccc1)NC(=O)OCc1ccccc1 (stereo not drawn) | 6.17
C[C@H](NS(=O)(=O)c1ccccc1)C(=O)NC1=NN=C(c2ccc(Cl)s2)CS1 | 6.77
Cc1cc(COc2ccc(N3CC[C@H]([C@H](NC(=O)OC(C)(C)C)C(=O)NO)C3=O)cc2)c2ccccc2n1 | 6.54

[a] Cc1ccc(S(=O)(=O)N[C@@H](Cc2ccccc2)C(=O)N[C@@H](C)C(=O)Nc2n[nH]c(=S)s2)cc1
[b] CNC(=O)[C@H](Cc1c[nH]c2ccccc12)NC(=O)[C@@H](CC(=O)O)CC(C)C
Of a and b , whose reported pKi is the larger number? Returns: label corresponding to the selected item.
b
(b: 7.00, a: 4.70)

[A] CNC(=O)[C@@H]1CCc2ccc(cc2)OCCC[C@H](C(=O)NO)[C@@H](CC(C)C)C(=O)N1
[B] O=C(C[C@@H](Cc1ccc(-c2ccccc2)cc1)C(=O)N[C@H]1c2ccccc2C[C@H]1O)NO
Of A and B , whose reported pKi is the larger number? Returns: label corresponding to the selected item.
A
(A: 8.68, B: 8.27)

[P] O=C1NCCCC[C@@H](C(=O)NCC(=O)N2CCNCC2)NC(=O)[C@H](Cc2ccc(-c3cccc(C(F)(F)F)c3)cc2)[C@@H](C(=O)NO)CCCO1
[Q] CCCCCc1ccc(OCCCC[C@H](CC(=O)NO)C(=O)N[C@H](C(=O)NC)C(C)(C)C)cc1
[R] CNC(=O)[C@@H]1CCCCN(S(=O)(=O)c2ccc(N)cc2)CCC[C@H](C(=O)NO)[C@@H](CC(C)C)C(=O)N1
Please list these in order of increasing pKi. Thank you! The reply should contain the labels ordered as requested.
P, Q, R
(P: 7.04, Q: 8.42, R: 8.80)

[a] C[C@H](NC(=O)[C@H](Cc1ccccc1)NS(=O)(=O)c1c(F)c(F)c(F)c(F)c1F)C(=O)Nc1n[nH]c(=S)s1
[b] CCCCCC[C@H](CC(=O)NO)C(=O)N[C@@H](Cc1c[nH]c2ccccc12)C(=O)NC
Parameter metric = pKi. Return the lower-valued option from a and b . Returns: label corresponding to the selected item.
a

[P] CC(C)C[C@H](CC(=O)NO)C(=O)N[C@@H](Cc1c[nH]c2ccccc12)C(=O)NC1CC1
[Q] CNC(=O)[C@H](Cc1c[nH]c2ccccc12)NC(=O)[C@@H](CC(=O)NO)OC(C)C
[R] O=C(Nc1ccc(S(=O)(=O)N2CCC[C@@H]2C(=O)NO)cc1)c1ccc([N+](=O)[O-])cc1
Please list these in order of increasing pKi. Thank you! The reply should contain the labels ordered as requested.
Q, P, R
(Q: 7.74, P: 8.92, R: 9.96)

[P] CC(C)C[C@H](CC(=O)NO)C(=O)N[C@H](Cc1ccncc1)C(=O)NCc1ccccc1
[Q] Cc1ccc(S(=O)(=O)NC(=O)N[C@@H](Cc2ccccc2)C(=O)N[C@@H](C)C(=O)Nc2n[nH]c(=S)s2)cc1
Parameter metric = pKi. Return the lower-valued option from P and Q . Returns: label corresponding to the selected item.
Q
(Q: 5.30, P: 8.82)

[A] C[C@H](NC(=O)[C@H](Cc1ccccc1)NS(=O)(=O)c1cccc2cccnc12)C(=O)Nc1n[nH]c(=S)s1
[B] O=C(NO)C(=O)NCCN(C(=O)C(=O)NO)c1cccc2ccccc12
[C] CNC(=O)[C@H](Cc1ccc(OC)cc1)NC(=O)[C@H](Cc1ccccc1)[C@@](C)(O)C(=O)NO
[D] O=C(C[C@@H](Cc1ccc(-c2ccccc2-c2nn[nH]n2)cc1)C(=O)N[C@H]1c2ccccc2C[C@H]1O)NO
List items by pKi in falling order. The reply should contain the labels ordered as requested.
C, B, D, A

[1] CC(C)(NS(=O)(=O)c1ccccc1)C(=O)NC1=NN=C(c2ccc(Cl)cc2)CS1
[2] C[C@H](NC(=O)[C@H](Cc1ccccc1)NS(=O)(=O)CC12CCC(CC1=O)C2(C)C)C(=O)Nc1n[nH]c(=S)s1 (stereo partly drawn)
Parameter metric = pKi. Return the lower-valued option from 1 and 2 . Returns: label corresponding to the selected item.
2
